experiment: compound autofluorescence in calcium buffer – biochemical, fluorescence, no RTF in test wells, artefact control for cardiac thin filament activator project, dose response (AID 504697); conditions: compound-only fluorescence in RTF assay buffer with Ca2+ (no RTF in test wells), artifact counterscreen;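 also: emission near 535 nm under roughly 485 nm excitation as for IANBD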
The source made the active and inactive calls.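 The calls were made as follows: active = EC50 at or below 10 µM; inactive = EC50 above 10 µM.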

{"columns": ["molecule", "EC50"],
 "data": [
  ["CCOc1ccc2ccccc2c1CNCCN1CCOCC1", "> 71.5 µM (inactive)"],
  ["O=C(O)CCC(=O)Nc1cc(C(F)(F)F)cc(C(F)(F)F)c1", "> 71.4 µM (inactive)"],
  ["O=C(CSc1nnc(COc2ccccc2)o1)N1CCN(c2ccccc2)CC1", "> 71.5 µM (inactive)"],
  ["COc1ccc(C)cc1NC(=O)C12CCC(C)(C(=O)O1)C2(C)C (centres undefined)", "> 71.5 µM (inactive)"]
]}
